- Assayed system: T1, EsCas13d, nuclease-dead (Eubacterium siraeum, UniProt B0MS50, R295A;H300A;R849A;H854A)
- T1 sequence: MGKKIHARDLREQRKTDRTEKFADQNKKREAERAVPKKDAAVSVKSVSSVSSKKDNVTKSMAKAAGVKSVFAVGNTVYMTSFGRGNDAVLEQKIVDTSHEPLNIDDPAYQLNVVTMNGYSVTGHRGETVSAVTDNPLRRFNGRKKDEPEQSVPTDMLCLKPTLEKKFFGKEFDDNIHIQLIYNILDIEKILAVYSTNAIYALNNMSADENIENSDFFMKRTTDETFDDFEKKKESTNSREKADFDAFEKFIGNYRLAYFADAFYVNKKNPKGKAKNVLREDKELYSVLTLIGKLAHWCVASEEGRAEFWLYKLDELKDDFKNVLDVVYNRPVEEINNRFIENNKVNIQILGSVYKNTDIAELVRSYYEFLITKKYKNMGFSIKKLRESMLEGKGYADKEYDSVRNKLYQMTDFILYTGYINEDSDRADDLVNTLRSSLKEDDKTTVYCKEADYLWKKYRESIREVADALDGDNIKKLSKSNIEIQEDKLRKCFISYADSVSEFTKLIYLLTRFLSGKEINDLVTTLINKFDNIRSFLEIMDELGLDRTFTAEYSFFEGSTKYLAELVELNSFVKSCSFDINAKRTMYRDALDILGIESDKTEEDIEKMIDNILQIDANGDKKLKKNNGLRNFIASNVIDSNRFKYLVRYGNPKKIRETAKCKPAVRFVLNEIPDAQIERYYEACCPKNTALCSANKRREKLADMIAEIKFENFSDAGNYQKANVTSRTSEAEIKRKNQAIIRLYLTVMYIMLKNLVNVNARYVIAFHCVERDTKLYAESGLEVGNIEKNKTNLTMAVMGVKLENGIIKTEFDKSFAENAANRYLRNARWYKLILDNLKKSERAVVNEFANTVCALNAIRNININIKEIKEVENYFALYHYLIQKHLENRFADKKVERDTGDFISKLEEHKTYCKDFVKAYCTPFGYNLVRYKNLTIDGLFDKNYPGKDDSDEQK
- Assay protocol: crRNA (strand 1, pre-loaded); Mg2+; 40 mM Tris-HCl pH 7.5, 150 mM NaCl, 6 mM MgCl2, 1 mM DTT, 0.1% Tween-20, 0.2 mg/ml BSA; 25 C; 10 min per concentration, then washed
- Experimental parameters: tags: His6-TwinStrep-SUMO cleaved; N-terminal SNAP kept (SNAP-Surface 488); label: 3' end held by stalled T7 RNA polymerase
Assay endpoint: pKd
Quick note: pKd means taking -log10 of the concentration in moles per liter.

target 1 insC 3' of 20,insG 3' of 9 (mixed) RNA 1: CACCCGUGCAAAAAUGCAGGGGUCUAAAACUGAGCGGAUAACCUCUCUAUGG RNA 2: GGGAAUGGAUCCACAUCUACGAAUUCGUACCACUAGAGAGGUUAGUCCGCUCACCGAGAUCGGAAGAGCACACGU ... 7.99
target 1 C6G,U11G (mixed) RNA 1: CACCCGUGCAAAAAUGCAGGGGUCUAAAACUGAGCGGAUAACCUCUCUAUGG RNA 2: GGGAAUGGAUCCACAUCUACGAAUUCGUACCAUAGAGAGGGUAUCGGCUCACCGAGAUCGGAAGAGCACACGU ... 8.02

Would you kindly share the measured pKd for target 1 insC 3' of 12,insA 3' of 6 (mixed) RNA 1: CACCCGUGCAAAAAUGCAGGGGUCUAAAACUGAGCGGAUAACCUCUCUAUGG RNA 2: GGGAAUGGAUCCACAUCUACGAAUUCGUACCAUAGAGAGGCUUAUCCAGCUCACCGAGAUCGGAAGAGCACACGU ?
7.95

Similarly, target 2 MT 5'PFS UAA 3'PFS AGG (mixed) RNA 1: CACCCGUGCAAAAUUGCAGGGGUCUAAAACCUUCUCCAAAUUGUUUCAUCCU RNA 2: GGGAAUGGAUCCACAUCUACGAAUUCUAAAGGAUGAAACAAUUUGGAGAAGAGGAGAUCGGAAGAGCACACGU ?
8.35

Similarly, target 1 A1C,U10A (mixed) RNA 1: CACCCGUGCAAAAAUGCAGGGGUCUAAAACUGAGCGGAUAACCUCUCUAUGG RNA 2: GGGAAUGGAUCCACAUCUACGAAUUCGUACCAUAGAGAGGUAAUCCGCUCCCCGAGAUCGGAAGAGCACACGU ?
7.58

Similarly, target 2 MT 5'PFS GUG 3'PFS AAG (mixed) RNA 1: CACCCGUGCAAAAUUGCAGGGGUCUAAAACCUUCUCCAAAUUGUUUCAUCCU RNA 2: GGGAAUGGAUCCACAUCUACGAAUUCGUGAGGAUGAAACAAUUUGGAGAAGAAGAGAUCGGAAGAGCACACGU ?
7.91

Similarly, target 1 A18U,A20U (mixed) RNA 1: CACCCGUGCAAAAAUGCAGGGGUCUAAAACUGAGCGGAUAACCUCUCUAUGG RNA 2: GGGAAUGGAUCCACAUCUACGAAUUCGUACCUUUGAGAGGUUAUCCGCUCACCGAGAUCGGAAGAGCACACGU ?
7.02

Similarly, target 1 insC 3' of 22,insG 3' of 9 (mixed) RNA 1: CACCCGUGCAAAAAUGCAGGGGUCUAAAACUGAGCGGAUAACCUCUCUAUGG RNA 2: GGGAAUGGAUCCACAUCUACGAAUUCGUACCCAUAGAGAGGUUAGUCCGCUCACCGAGAUCGGAAGAGCACACGU ?
7.48
